PROTOCOL DESCRIPTION: Cytotoxicity against human Fa2N-4 cells after 24 hrs by ATP-lite 1-step assay
Assay type: cell-based
CONDITION SET: read-out: LD50
OBSERVATION TYPE: CC50 at 24 h

[[record]]
structure = "Cc1cc2nc(NCCCO)n(CC(=O)c3cc(C(C)(C)C)c(O)c(C(C)(C)C)c3)c2cc1C"
observation_type = "CC50 at 24 h"
data_value = "47 µM"


====

PROTOCOL DESCRIPTION: Drug level in mouse blood at 50 mg/kg, ip after 0.5 hrs by LC/MS analysis
Assay type: ADME, organism-based
Set-up: dose 50 mg/kg, route intraperitoneal
CONDITION SET: whole blood, read-out: Drug uptake
OBSERVATION TYPE: concentration at 0.5 h

[[record]]
structure = "Cc1cc2nc(NCCCO)n(CC(=O)c3cc(C(C)(C)C)c(O)c(C(C)(C)C)c3)c2cc1C"
data_value = "5.93 µM"


====

PROTOCOL DESCRIPTION: Drug level in mouse blood at 10 mg/kg, ip after 0.5 hrs by LC/MS analysis
Format: ADME, organism-based
Design: dose 10 mg/kg, route intraperitoneal
CONDITION SET: whole blood, read-out: Drug uptake
OBSERVATION TYPE: concentration at 0.5 h (nM)

[[record]]
structure = "Cc1cc2nc(NCCCO)n(CC(=O)c3cc(C(C)(C)C)c(O)c(C(C)(C)C)c3)c2cc1C"
data_value = 1810


====

PROTOCOL DESCRIPTION: Drug level in mouse blood at 30 mg/kg, ip after 0.5 hrs by LC/MS analysis
Assay type: ADME, organism-based
Design: dose 30 mg/kg, route intraperitoneal
CONDITION SET: whole blood, read-out: Drug uptake
OBSERVATION TYPE: concentration at 0.5 h

[[record]]
structure = "Cc1cc2nc(NCCCO)n(CC(=O)c3cc(C(C)(C)C)c(O)c(C(C)(C)C)c3)c2cc1C"
data_value = "8.28 µM"


====

PROTOCOL DESCRIPTION: Metabolic stability in human liver microsomes assessed as compound remaining at 1 uM after 1 hr by LC/MS/MS analysis
Format: ADME, Microsome
CONDITION SET: read-out: Stability
OBSERVATION TYPE: remaining at 1 h, 1 µM

[[record]]
structure = "Cc1cc2nc(NCCCO)n(CC(=O)c3cc(C(C)(C)C)c(O)c(C(C)(C)C)c3)c2cc1C"
observation_type = "remaining at 1 h, 1 µM"
data_value = "26%"


====

PROTOCOL DESCRIPTION: Aqueous solubility at pH 6.2 after 18 hrs by UV kinetic solubility method
Format: physicochemical
CONDITION SET: aqueous medium
OBSERVATION TYPE: solubility kinetic at 18 h (µg/mL)

[[record]]
structure = "Cc1cc2nc(NCCCO)n(CC(=O)c3cc(C(C)(C)C)c(O)c(C(C)(C)C)c3)c2cc1C"
unit_string = "µg/mL"
data_value = 0.5


====

PROTOCOL DESCRIPTION: Metabolic stability in mouse liver microsomes assessed as compound remaining at 1 uM after 1 hr by LC/MS/MS analysis
Format: ADME, Microsome
CONDITION SET: read-out: Stability
OBSERVATION TYPE: remaining at 1 h, 1 µM

[[record]]
structure = "Cc1cc2nc(NCCCO)n(CC(=O)c3cc(C(C)(C)C)c(O)c(C(C)(C)C)c3)c2cc1C"
data_value = "0.5%"

